# credit: paper PMC2248166

target: HLA B*0801 (Homo sapiens, UniProt P01889, A93T/A95T/D138N/E176V/E187T/K202T/Q94N/R180D/S35A/V36M/Y33D/Y91F); experiment: biochemical
Where a SMILES comes first, the peptide text is derived from it.
metricName: IC50

Example entries and their recorded answers appear below.
# molecule, metricName, observedResult
rows = [
    ("CC(C)C[C@H](NC(=O)[C@H](CO)NC(=O)CNC(=O)[C@@H]1CCCN1C(=O)[C@H](CCCNC(=N)N)NC(=O)[C@H](Cc1ccccc1)NC(=O)[C@H](CCCCN)NC(=O)[C@H](Cc1ccccc1)NC(=O)[C@@H](N)CO)C(=O)O [3102.0734] (H-SFKFRPGSL-OH)", "IC50", "3 nM"),
    ("CC[C@H](C)[C@H](NC(=O)[C@H](Cc1ccc(O)cc1)NC(=O)[C@H](C)NC(=O)[C@H](Cc1ccccc1)NC(=O)[C@H](Cc1ccc(O)cc1)NC(=O)[C@H](Cc1ccc(O)cc1)NC(=O)[C@H](CCCNC(=N)N)NC(=O)[C@H](CCC(=O)O)NC(=O)CN)C(=O)O [3102.0936] (H-GERYYFAYI-OH)", "IC50", "6.9 nM"),
    ("CC[C@H](C)[C@H](NC(=O)[C@@H](NC(=O)[C@H](CCC(N)=O)NC(=O)[C@H](CCCNC(=N)N)NC(=O)[C@H](CCCCN)NC(=O)[C@H](Cc1ccccc1)NC(=O)[C@H](CO)NC(=O)[C@@H]1CCCN1C(=O)[C@@H](N)CC(N)=O)[C@@H](C)CC)C(=O)O [3102.0704] (H-NPSFKRQII-OH)", "IC50", "20 nM"),
]

// next item, IC50 requested
Exercise: IC50 for CSCC[C@H](NC(=O)[C@H](CCCNC(=N)N)NC(=O)[C@H](Cc1ccccc1)NC(=O)[C@@H]1CCCN1C(=O)[C@H](CCSC)NC(=O)[C@H](CCCCN)NC(=O)[C@H](CC(C)C)NC(=O)[C@@H](N)CC(C)C)C(=O)N[C@H](C(=O)O)C(C)C [3102.0749] (H-LLKMPFRMV-OH) ?
Solution: 7.1 nM

====

target: HLA A*3201 (Homo sapiens, UniProt P04439, A270S/D101S/D185E/E176V/E277Q/F133L/G103R/G107R/G231S/H175R/I121M/I218V/I322F/K168Q/L105A/L300P/L318F/M331R/P208A/P217A/Q94H/R106L/R138Q/S129P/T104I/T323A/T345S/V100E/V321M/V358M); assay: biochemical
Where a SMILES comes first, the peptide text is derived from it.
Reported IC50 is given for each of the following molecules.
All answers are understood in nM, so give the number only.

# molecule, metricName, unitInfo, observedResult
records = [
    ("CC[C@H](C)[C@H](NC(=O)[C@H](CC(N)=O)NC(=O)[C@@H](NC(=O)[C@@H](NC(=O)[C@H](Cc1ccccc1)NC(=O)[C@@H](NC(=O)[C@H](C)NC(=O)[C@H](CC(C)C)NC(=O)[C@H](C)N)[C@@H](C)O)[C@@H](C)O)C(C)C)C(=O)O [3102.0344] (H-ALATFTVNI-OH)", "IC50", "nM", 6.1),
]

Exercise: What measured IC50 goes with CC(C)C[C@H](NC(=O)[C@H](Cc1ccccc1)NC(=O)[C@H](Cc1c[nH]c2ccccc12)NC(=O)[C@H](CC(C)C)NC(=O)[C@@H](N)CC(C)C)C(=O)N[C@H](C(=O)NCC(=O)N[C@H](C(=O)N[C@@H](Cc1ccccc1)C(=O)O)[C@@H](C)O)[C@@H](C)O [3102.1045] (H-LLWFLTGTF-OH) ?
Solution: 93

Exercise: How about CC(C)C[C@H](NC(=O)[C@H](CC(N)=O)NC(=O)[C@H](Cc1ccc(O)cc1)NC(=O)[C@H](Cc1ccc(O)cc1)NC(=O)[C@@H](NC(=O)[C@H](Cc1ccc(O)cc1)NC(=O)[C@H](Cc1ccccc1)NC(=O)[C@H](CC(C)C)NC(=O)[C@@H](N)CCCCN)C(C)C)C(=O)O [3102.0343] (H-KLFYVYYNL-OH) ?
Solution: 0.34

Exercise: Field entry: CC[C@H](C)[C@H](NC(=O)[C@@H](N)CO)C(=O)N[C@@H](Cc1ccc(O)cc1)C(=O)NCC(=O)N[C@@H](Cc1ccccc1)C(=O)NCC(=O)N[C@H](C(=O)N[C@H](C(=O)N[C@@H](Cc1ccccc1)C(=O)O)[C@@H](C)O)C(C)C [3102.0314] (H-SIYGFGVTF-OH)
Solution: 0.11

Exercise: Here is the next molecule: CC[C@H](C)[C@H](NC(=O)CNC(=O)[C@H](CC(C)C)NC(=O)[C@@H](NC(=O)[C@H](CC(C)C)NC(=O)[C@H](Cc1ccc(O)cc1)NC(=O)[C@H](CCSC)NC(=O)[C@@H](NC(=O)[C@@H](N)CCSC)[C@@H](C)CC)C(C)C)C(=O)O [3102.0477] (H-MIMYLVLGI-OH)
Solution: 98

Exercise: Can you handle CC[C@H](C)[C@H](NC(=O)[C@H](Cc1c[nH]cn1)NC(=O)[C@H](CS)NC(=O)[C@H](CC(C)C)NC(=O)[C@H](CC(C)C)NC(=O)[C@@H](N)CC(N)=O)C(=O)N[C@@H](Cc1ccc(O)cc1)C(=O)N[C@@H](CO)C(=O)N[C@@H](CC(C)C)C(=O)O [3102.0692] (H-NLLCHIYSL-OH) next?
Solution: 232

Exercise: Subsequent entry: CC[C@H](C)[C@H](NC(=O)[C@H](CC(C)C)NC(=O)[C@H](Cc1ccccc1)NC(=O)[C@@H](NC(=O)[C@@H](N)CCCNC(=N)N)[C@@H](C)O)C(=O)N[C@@H](CC(=O)O)C(=O)N[C@@H](CC(C)C)C(=O)N[C@@H](C)C(=O)N[C@@H](Cc1ccccc1)C(=O)O [3102.0420] (H-RTFLIDLAF-OH)
Solution: 0.48
